# PROCEDURE SUMMARY: Displacement of [3H]Ro15-1788 from rat GABAA alpha-1-beta-2-gamma-2 receptor expressed in HEK293 cells after 1 hr assessed as residual binding by liquid scintillation counting
RECORDED METRIC: Kd (nM)
Answers are plain numbers, in nM.

Incoming: Entry CCOC(=O)c1ncn2c1CN(C)C(=O)c1cc(N=C=S)ccc1-2 : reported Kd = ?
Outgoing: 878

* * *

# TEST SYSTEM: Gamma-aminobutyric acid receptor subunit alpha-1 (Rattus norvegicus) (UniProt P62813)
# Sequence (P62813 whole entry, looked up): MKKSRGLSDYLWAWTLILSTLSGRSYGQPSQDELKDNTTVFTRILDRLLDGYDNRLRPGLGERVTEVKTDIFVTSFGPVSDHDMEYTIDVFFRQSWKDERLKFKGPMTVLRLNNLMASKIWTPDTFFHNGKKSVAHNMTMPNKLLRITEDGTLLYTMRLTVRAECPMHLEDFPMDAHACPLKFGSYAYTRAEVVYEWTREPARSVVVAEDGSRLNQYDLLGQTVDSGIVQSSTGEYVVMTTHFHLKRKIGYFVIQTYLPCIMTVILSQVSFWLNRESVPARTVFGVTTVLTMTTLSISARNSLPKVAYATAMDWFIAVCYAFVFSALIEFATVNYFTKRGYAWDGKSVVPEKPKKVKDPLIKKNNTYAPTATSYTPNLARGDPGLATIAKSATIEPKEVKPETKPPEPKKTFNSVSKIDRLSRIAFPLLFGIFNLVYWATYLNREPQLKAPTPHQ
# PROCEDURE SUMMARY: Activity at rat wild type GABAA alpha-1-beta-2-gamma-2 receptor expressed in xenopus oocytes assessed as GABA-elicited response by two electrode voltage clamp method relative to control
RECORDED METRIC: EC50 (nM)
Numbers only, in nM.

| SMILES DATA | RECORDED METRIC | UNIT ABBREV | DATA VALUE |
| --- | --- | --- | --- |
| CCOC(=O)c1ncn2c1CN(C)C(=O)c1cc(N=[N+]=[N-])ccc1-2 | EC50 | nM | 1.1 |

Incoming: Name the recorded EC50 for CCOC(=O)c1ncn2c1CN(C)C(=O)c1cc(N=C=S)ccc1-2 .
Outgoing: 250
